Collected thermal stability score values appear next to each entry.
- Test system: HeLa Kyoto
- procedure_text: thermal stability score vs G1/S (z-score of summed log2 fold changes over temperatures); higher = more thermally stable than in G1/S
- measurement_context: cell cycle stage: mitosis

// known answers, use as guide
| seq_text | parameter | observed |
| --- | --- | --- |
| MASGVQVADEVCRIFYDMKVRKCSTPEEIKKRKKAVIFCLSADKKCIIVEEGKEILVGDVGVTITDPFKHFVGMLPEKDCRYALYDASFETKESRKEELMFFLWAPELAPLKSKMIYASSKDAIKKKFQGIKHECQANGPEDLNRACIAEKLGGSLIVAFEGCPV [DSTN] | thermal stability score | -2.53 |
| MESGGRPSLCQFILLGTTSVVTAALYSVYRQKARVSQELKGAKKVHLGEDLKSILSEAPGKCVPYAVIEGAVRSVKETLNSQFVENCKGVIQRLTLQEHKMVWNRTTHLWNDCSKIIHQRTNTVPFDLVPHEDGVDVAVRVLKPLDSVDLGLETVYEKFHPSIQSFTDVIGHYISGERPKGIQETEEMLKVGATLTGVGELVLDNNSVRLQPPKQGMQYYLSSQDFDSLLQRQESSVRLWKVLALVFGFATCATLFFILRKQYLQRQERLRLKQMQEEFQEHEAQLLSRAKPEDRESLKSACVVCLSSFKSCVFLECGHVCSCTECYRALPEPKKCPICRQAITRVIPLYNS [MUL1] | thermal stability score | 0.791 |

# input for lookup
So what's the measured thermal stability score for this one? MASSDIQVKELEKRASGQAFELILSPRSKESVPEFPLSPPKKKDLSLEEIQKKLEAAEERRKSHEAEVLKQLAEKREHEKEVLQKAIEENNNFSKMAEEKLTHKMEANKENREAQMAAKLERLREKDKHIEEVRKNKESKDPADETEAD [STMN1] -5.49

====

Collected solubility in G1/S (log2) values appear next to each entry.
- Tested on: HeLa Kyoto
- procedure_text: solubility in G1/S (NP-40 vs SDS abundance) (log2 ratio); higher = more soluble
- measurement_context: cell cycle stage: G1/S
// return a plain number; no unit text

| seq_text | solubility in G1/S (log2) |
| --- | --- |
| MKLLARALRLCEFGRQASSRRLVAGQGCVGPRRGCCAPVQVVGPRADLPPCGACITGRIMRPDDANVAGNVHGGTILKMIEEAGAIISTRHCNSQNGERCVAALARVERTDFLSPMCIGEVAHVSAEITYTSKHSVEVQVNVMSENILTGAKKLTNKATLWYVPLSLKNVDKVLEVPPVVYSRQEQEEEGRKRYEAQKLERMETKWRNGDIVQPVLNPEPNTVSYSQSSLIHLVGPSDCTLHGFVHGGVTMKLMDEVAGIVAARHCKTNIVTASVDAINFHDKIRKGCVITISGRMTFTSNKSMEIEVLVDADPVVDSSQKRYRAASAFFTYVSLSQEGRSLPVPQLVPETEDEKKRFEEGKGRYLQMKAKRQGHAEPQP [ACOT7] | 0.0352 |

So what's the measured solubility in G1/S (log2) for this one? MDLDVVNMFVIAGGTLAIPILAFVASFLLWPSALIRIYYWYWRRTLGMQVRYVHHEDYQFCYSFRGRPGHKPSILMLHGFSAHKDMWLSVVKFLPKNLHLVCVDMPGHEGTTRSSLDDLSIDGQVKRIHQFVECLKLNKKPFHLVGTSMGGQVAGVYAAYYPSDVSSLCLVCPAGLQYSTDNQFVQRLKELQGSAAVEKIPLIPSTPEEMSEMLQLCSYVRFKVPQQILQGLVDVRIPHNNFYRKLFLEIVSEKSRYSLHQNMDKIKVPTQIIWGKQDQVLDVSGADMLAKSIANCQVELLENCGHSVVMERPRKTAKLIIDFLASVHNTDNNKKLD [ABHD6] -0.209

====

- System: HeLa Kyoto
- procedure_text: thermal stability score vs G1/S (z-score of summed log2 fold changes over temperatures); higher = more thermally stable than in G1/S
- measurement_context: cell cycle stage: early G1 (4.5 h after nocodazole release)
Collected thermal stability score values appear next to each entry.
// return a plain number; no unit text

| seq_text | thermal stability score |
| --- | --- |
| MGTRDDEYDYLFKVVLIGDSGVGKSNLLSRFTRNEFNLESKSTIGVEFATRSIQVDGKTIKAQIWDTAGQERYRAITSAYYRGAVGALLVYDIAKHLTYENVERWLKELRDHADSNIVIMLVGNKSDLRHLRAVPTDEARAFAEKNNLSFIETSALDSTNVEEAFKNILTEIYRIVSQKQIADRAAHDESPGNNVVDISVPPTTDGQKPNKLQCCQNL [RAB11B] | 0.344 |

# input for lookup
So what's the measured thermal stability score for this one? MDSSAVITQISKEEARGPLRGKGDQKSAASQKPRSRGILHSLFCCVCRDDGEALPAHSGAPLLVEENGAIPKQTPVQYLLPEAKAQDSDKICVVIDLDETLVHSSFKPVNNADFIIPVEIDGVVHQVYVLKRPHVDEFLQRMGELFECVLFTASLAKYADPVADLLDKWGAFRARLFRESCVFHRGNYVKDLSRLGRDLRRVLILDNSPASYVFHPDNAVPVASWFDNMSDTELHDLLPFFEQLSRVDDVYSVLRQPRPGS [CTDSP1] 0.748

====

- Tested on: HeLa Kyoto
- procedure_text: melting temperature (median over replicates), in situ; higher = more thermally stable
- measurement_context: cell cycle stage: G1/S
Collected melting temperature values appear next to each entry.
Give your result in °C as a bare value.

| seq_text | display_unit | observed |
| --- | --- | --- |
| MAQESPKNSAAEIPVTSNGEVDDSREHSFNRDLKHSLPSGLGLSETQITSHGFDNTKEGVIEAGAFQGSPAPPLPSVMSPSRVAASRLAQQGSDLIVPAGGQRTQTKSGPVILADEIKNPAMEKLELVRKWSLNTYKCTRQIISEKLGRGSRTVDLELEAQIDILRDNKKKYENILKLAQTLSTQLFQMVHTQRQLGDAFADLSLKSLELHEEFGYNADTQKLLAKNGETLLGAINFFIASVNTLVNKTIEDTLMTVKQYESARIEYDAYRTDLEELNLGPRDANTLPKIEQSQHLFQAHKEKYDKMRNDVSVKLKFLEENKVKVLHNQLVLFHNAIAAYFAGNQKQLEQTLKQFHIKLKTPGVDAPSWLEEQ [ARFIP1] | °C | 51.2 |

# input for lookup
What reported melting temperature corresponds to MEQLRAAARLQIVLGHLGRPSAGAVVAHPTSGTISSASFHPQQFQYTLDNNVLTLEQRKFYEENGFLVIKNLVPDADIQRFRNEFEKICRKEVKPLGLTVMRDVTISKSEYAPSEKMITKVQDFQEDKELFRYCTLPEILKYVECFTGPNIMAMHTMLINKPPDSGKKTSRHPLHQDLHYFPFRPSDLIVCAWTAMEHISRNNGCLVVLPGTHKGSLKPHDYPKWEGGVNKMFHGIQDYEENKARVHLVMEKGDTVFFHPLLIHGSGQNKTQGFRKAISCHFASADCHYIDVKGTSQENIEKEVVGIAHKFFGAENSVNLKDIWMFRARLVKGERTNL [PHYH] on HeLa Kyoto? 51.6

====

- System: HeLa Kyoto
- procedure_text: thermal stability score vs G1/S (z-score of summed log2 fold changes over temperatures); higher = more thermally stable than in G1/S
- measurement_context: cell cycle stage: early G1 (4.5 h after nocodazole release)
Rule: true (1) for thermal stability score not less than -0.9, false (0) for anything less.

| seq_text | class_assignment |
| --- | --- |
| MKQLPVLEPGDKPRKATWYTLTVPGDSPCARVGHSCSYLPPVGNAKRGKVFIVGGANPNRSFSDVHTMDLGKHQWDLDTCKGLLPRYEHASFIPSCTPDRIWVFGGANQSGNRNCLQVLNPETRTWTTPEVTSPPPSPRTFHTSSAAIGNQLYVFGGGERGAQPVQDTKLHVFDANTLTWSQPETLGNPPSPRHGHVMVAAGTKLFIHGGLAGDRFYDDLHCIDISDMKWQKLNPTGAAPAGCAAHSAVAMGKHVYIFGGMTPAGALDTMYQYHTEEQHWTLLKFDTLLPPGRLDHSMCIIPWPVTCASEKEDSNSLTLNHEAEKEDSADKVMSHSGDSHEESQTATLLCLVFGGMNTEGEIYDDCIVTVVD [RABEPK] | false (0) |

Assess whether reported thermal stability score for MATLVELPDSVLLEIFSYLPVRDRIRISRVCHRWKRLVDDRWLWRHVDLTLYTMRPKVMWHLLRRYMASRLHSLRMGGYLFSGSQAPQLSPALLRALGQKCPNLKRLCLHVADLSMVPITSLPSTLRTLELHSCEISMAWLHKQQDPTVLPLLECIVLDRVPAFRDEHLQGLTRFRALRSLVLGGTYRVTETGLDAGLQELSYLQRLEVLGCTLSADSTLLAISRHLRDVRKIRLTVRGLSAPGLAVLEGMPALESLCLQGPLVTPEMPSPTEILSSCLTMPKLRVLELQGLGWEGQEAEKILCKGLPHCMVIVRACPKESMDWWM [FBXL12] sits at -0.9 or higher. true (1)

Assess whether reported thermal stability score for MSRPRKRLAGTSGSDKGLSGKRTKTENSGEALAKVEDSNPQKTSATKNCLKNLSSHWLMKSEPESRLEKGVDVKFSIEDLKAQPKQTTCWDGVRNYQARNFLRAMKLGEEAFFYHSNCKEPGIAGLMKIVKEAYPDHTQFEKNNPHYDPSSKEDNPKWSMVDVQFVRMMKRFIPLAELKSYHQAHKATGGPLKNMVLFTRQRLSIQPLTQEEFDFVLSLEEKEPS [THYN1] sits at -0.9 or higher. false (0)

Assess whether reported thermal stability score for MGLTVSALFSRIFGKKQMRILMVGLDAAGKTTILYKLKLGEIVTTIPTIGFNVETVEYKNICFTVWDVGGQDKIRPLWRHYFQNTQGLIFVVDSNDRERVQESADELQKMLQEDELRDAVLLVFANKQDMPNAMPVSELTDKLGLQHLRSRTWYVQATCATQGTGLYDGLDWLSHELSKR [ARF5] sits at -0.9 or higher. true (1)

Assess whether reported thermal stability score for MEEVPHDCPGADSAQAGRGASCQGCPNQRLCASGAGATPDTAIEEIKEKMKTVKHKILVLSGKGGVGKSTFSAHLAHGLAEDENTQIALLDIDICGPSIPKIMGLEGEQVHQSGSGWSPVYVEDNLGVMSVGFLLSSPDDAVIWRGPKKNGMIKQFLRDVDWGEVDYLIVDTPPGTSDEHLSVVRYLATAHIDGAVIITTPQEVSLQDVRKEINFCRKVKLPIIGVVENMSGFICPKCKKESQIFPPTTGGAELMCQDLEVPLLGRVPLDPLIGKNCDKGQSFFIDAPDSPATLAYRSIIQRIQEFCNLHQSKEENLISS [NUBP1] sits at -0.9 or higher. true (1)

Assess whether reported thermal stability score for MREYKLVVLGSGGVGKSALTVQFVQGIFVEKYDPTIEDSYRKQVEVDCQQCMLEILDTAGTEQFTAMRDLYMKNGQGFALVYSITAQSTFNDLQDLREQILRVKDTEDVPMILVGNKCDLEDERVVGKEQGQNLARQWCNCAFLESSAKSKINVNEIFYDLVRQINRKTPVEKKKPKKKSCLLL [RAP1A] sits at -0.9 or higher. true (1)
